src = ChEMBL document CHEMBL4043264

- MEASUREMENT_PROTOCOL: Inhibition of HIV-1 protease using fluorogenic substrate by fluorescence assay
- Parameters: species or system Human immunodeficiency virus 1
pKi: −log10 of the molar value.
Lab note: compare pKi against 8. Equal or greater, write class 1. Smaller, write class 0.

Sample answers from the record:
COc1ccc2c(c1)COC/C=C/CCCCCN(C[C@@H](O)[C@H](Cc1ccccc1)NC(=O)O[C@H]1CO[C@H]3OCC[C@H]31)S2(=O)=O: class 1
COc1ccc2c(c1)COC/C=C\CCCCCN(C[C@@H](O)[C@H](Cc1ccccc1)NC(=O)O[C@H]1CO[C@H]3OCC[C@H]31)S2(=O)=O: class 1
COc1ccc2c(c1)OCCCCCN1C(=O)CC[C@H]1CN(C[C@@H](O)[C@H](Cc1ccccc1)NC(=O)O[C@H]1CO[C@H]3OCC[C@H]31)S2(=O)=O: class 0

Query string: Decide: pKi of `COc1ccc2c(c1)OCCCCCOCCN(C[C@@H](O)[C@H](Cc1ccccc1)NC(=O)O[C@H]1CO[C@H]3OCC[C@H]31)S2(=O)=O` >= 8?
Result string: class 1

###

- Tested on: Human immunodeficiency virus 1
- MEASUREMENT_PROTOCOL: Antiviral activity against darunavir-resistant HIV1 harboring protease L10I/[…]K20R/L24I/V32I/M36I/M46L/L63P/V82A/L89M mutant infected in human MT4 cells assessed as reduction in p24 Gag protein production
- Type: functional, cell-based
- CONDITION_DETAILS: Human immunodeficiency virus 1, MT4
RESULT_TYPE: pIC50
Scale: pIC50 equals -log10([C]), with [C] in mol/L.

COc1ccc2c(c1)COCCCCCCCN(C[C@@H](O)[C@H](Cc1ccccc1)NC(=O)O[C@H]1CO[C@H]3OCC[C@H]31)S2(=O)=O: 6.62

Now look at this entry.
Value of pIC50 reported for the molecule `Nc1ccc2c(c1)COCCCCCCCN(C[C@@H](O)[C@H](Cc1ccccc1)NC(=O)O[C@H]1CO[C@H]3OCC[C@H]31)S2(=O)=O` is 7.70

###

- MEASUREMENT_PROTOCOL: Inhibition of HIV-1 protease using fluorogenic substrate by fluorescence assay
- Parameters: species or system Human immunodeficiency virus 1
RESULT_TYPE: Ki (nM)
Answer format: numeric, nM implied, no suffix.

Value of Ki reported for the compound `COc1ccc2c(c1)OCC/C=C\CN1C(=O)CC[C@@H]1CN(C[C@@H](O)[C@H](Cc1ccccc1)NC(=O)O[C@H]1CO[C@H]3OCC[C@H]31)S2(=O)=O` is 13.2

Value of Ki reported for the compound `COc1ccc2c(c1)OCCCCCCOCCN(C[C@@H](O)[C@H](Cc1ccccc1)NC(=O)O[C@H]1CO[C@H]3OCC[C@H]31)S2(=O)=O` is 9.85

Value of Ki reported for the compound `COc1ccc2c(c1)COC/C=C\CCCCN(C[C@@H](O)[C@H](Cc1ccccc1)NC(=O)O[C@H]1CO[C@H]3OCC[C@H]31)S2(=O)=O` is 0.029

###

- MEASUREMENT_PROTOCOL: Inhibition of HIV-1 protease using fluorogenic substrate by fluorescence assay
- Parameters: species or system Human immunodeficiency virus 1
pKi: −log10 of the molar value.
Lab note: compare pKi against 10. Equal or greater, write satisfied. Smaller, write not satisfied.

Query string: Decide: pKi of `COc1ccc2c(c1)COC/C=C/CCCCN(C[C@@H](O)[C@H](Cc1ccccc1)NC(=O)O[C@H]1CO[C@H]3OCC[C@H]31)S2(=O)=O` >= 10?
Result string: satisfied

Query string: Decide: pKi of `COc1ccc2c(c1)OCC/C=C/CN1C(=O)CC[C@@H]1CN(C[C@@H](O)[C@H](Cc1ccccc1)NC(=O)O[C@H]1CO[C@H]3OCC[C@H]31)S2(=O)=O` >= 10?
Result string: not satisfied

Query string: Decide: pKi of `COc1ccc2c(c1)OCCCCCN1C(=O)CC[C@@H]1CN(C[C@@H](O)[C@H](Cc1ccccc1)NC(=O)O[C@H]1CO[C@H]3OCC[C@H]31)S2(=O)=O` >= 10?
Result string: not satisfied

Query string: Decide: pKi of `COc1ccc2c(c1)OCCCCCN(S(C)(=O)=O)CCN(C[C@@H](O)[C@H](Cc1ccccc1)NC(=O)O[C@H]1CO[C@H]3OCC[C@H]31)S2(=O)=O` >= 10?
Result string: not satisfied

Query string: Decide: pKi of `Nc1ccc2c(c1)COCCCCCCCN(C[C@@H](O)[C@H](Cc1ccccc1)NC(=O)O[C@H]1CO[C@H]3OCC[C@H]31)S2(=O)=O` >= 10?
Result string: satisfied

Query string: Decide: pKi of `COc1ccc2c(c1)OCCCCCCN(S(C)(=O)=O)CCN(C[C@@H](O)[C@H](Cc1ccccc1)NC(=O)O[C@H]1CO[C@H]3OCC[C@H]31)S2(=O)=O` >= 10?
Result string: not satisfied
